molecular target: Aldo-keto reductase family 1 member B1 (Homo sapiens, UniProt P15121)
measured.quantity: IC50
Entry format: amount then unit.

Fill in IC50 for record O=C(O)CCCc1nc(-c2ccc(Cl)cc2)no1 [Ligand 8]
17.7 µM
